target_or_system: A17 RT (Human immunodeficiency virus type 1 group M subtype B, UniProt P04585, K690N/Y768C)
Construct: A17 RT was employed in the assay; made in house; host or cells: bacteria
assay: Reverse transcriptase assay, double (DBL) mutant
Format: biochemical, HIV
condition_set: A17 RT (double mutant, resistant to aminopyridones); read-out: IC50DBL Mutant
measured_property: IC50 (µM)
One number for each entry, in µM.

Name the recorded IC50 of the compound listed here: CN1C(=O)Nc2ccc(Cl)cc2C1(C#CCOc1cc[n+]([O-])cc1)C1CC1 (stereo not shown)
65

Where do these numbers come from? They come from patent EP0569083A1.
